- tested-target: muscarinic receptors, heart (Rattus norvegicus, UniProt P10980)
- Construct: The whole heart was cut up with scissors
- Sequence (P10980 whole entry): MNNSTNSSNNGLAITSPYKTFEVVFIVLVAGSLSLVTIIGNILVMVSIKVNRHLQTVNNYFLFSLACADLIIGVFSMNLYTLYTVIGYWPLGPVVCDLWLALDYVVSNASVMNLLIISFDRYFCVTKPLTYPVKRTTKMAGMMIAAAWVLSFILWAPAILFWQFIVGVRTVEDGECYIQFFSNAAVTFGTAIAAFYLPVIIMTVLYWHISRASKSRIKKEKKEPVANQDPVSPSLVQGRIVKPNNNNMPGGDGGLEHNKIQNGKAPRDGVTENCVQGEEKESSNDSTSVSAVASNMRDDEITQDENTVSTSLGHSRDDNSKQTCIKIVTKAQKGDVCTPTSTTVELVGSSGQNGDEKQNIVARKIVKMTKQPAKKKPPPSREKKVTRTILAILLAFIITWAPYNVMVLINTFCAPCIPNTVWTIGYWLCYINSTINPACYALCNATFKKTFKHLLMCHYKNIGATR
- test-details: Receptor binding test in vitro, 3H-NMS displacement, whole heart homogenate
- assay-setup: rat whole heart homogenate 1:400; 0.3 nanomolar 3H-NMS; 30° C., 45 minutes; read-out: Receptor Binding Tests IC50, Heart
endpoint-name: IC50 (nM)
Respond with the bare value in nM.

**Query** // query IC50 value for entry CCN1CCCC1CN(C)CC(=O)N1c2ccccc2C(=O)Nc2cccnc21 (stereo not shown)
**Result** 6
